B1: Twister Ribozyme (parent)
chain: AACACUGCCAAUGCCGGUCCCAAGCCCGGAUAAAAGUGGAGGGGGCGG

Variants of: B1
Assay explanation: self-cleavage, relative activity (ratio to wild type); higher = more cleavage; co-transcriptional
Reported metric: self-cleavage
# respond with the number and nothing more

These solved cases illustrate the format of a correct answer.
| Seq text | Reported metric | Numeric value |
| --- | --- | --- |
| AACACUGCCAAUGCCGGUCCCAAGCCCGGUUAAAAGUGGAGGUGGCGG [A30U G43U] | self-cleavage | 0.558 |
| AACACUGCCAAUGCCGGUCCCCAGGCCGGAUAAAAGUGGAGGGGGCGG [A22C C25G] | self-cleavage | 0.222 |
| AACACUGCCAAUUCCGGUCCCAAGCGCGGAUAAAAGUGGAGGGGGCGG [G13U C26G] | self-cleavage | 0.0668 |
| AACAUUGCCAAUGCCGGCCCCAAGCCCGGAUAAAAGUGGAGGGGGCGG [C5U U18C] | self-cleavage | 0.24 |
| AACACAGCCAAUGCCGGUCCCAAGCCCGGAUAAAAGUGGUGGGGGCGG [U6A A40U] | self-cleavage | 0.116 |

Could you share which self-cleavage value was measured for AACACUGCCAAUGCCGGUUCCAUGCCCGGAUAAAAGUGGAGGGGGCGG [C19U A23U] ?
0.203

And the next one, GACACUGCCAAUGCCGGUCCCAAUCCCGGAUAAAAGUGGAGGGGGCGG [A1G G24U] ?
0.163

And the next one, AACACUGCCAAUGCCGGUCCCAAGCCUGGAUAAAAGUGAAGGGGGCGG [C27U G39A] ?
0.253

The reported measurements were obtained from the RNAGym collection of RNA variant scans (doi:10.7554/elife.80360).
